Below, each entry is listed with its recorded IC50.
Molecular target: Hu DR5 ECD (SEQ ID NO: 105) (Homo sapiens, UniProt O14763, A67V/E190F/V191A)
Construct: Human DR5-ECD long form polypeptide
Sequence (O14763 with tags, fused parts or gaps A67V/E190F/V191A): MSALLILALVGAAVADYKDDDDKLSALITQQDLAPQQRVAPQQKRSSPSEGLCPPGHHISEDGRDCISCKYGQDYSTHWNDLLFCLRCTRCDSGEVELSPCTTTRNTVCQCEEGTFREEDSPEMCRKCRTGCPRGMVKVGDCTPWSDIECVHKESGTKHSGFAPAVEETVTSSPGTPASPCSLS
Experiment: Phage competition Ic50 ELISA (phagemid binding assay), competitor DR5 ECD
Conditions: Positive clones, competitor DR5 ECD (Comp/DR5 EcD)
VALUE_KIND: IC50 (nM)

- SUBSTANCE: "871-31-S3 (ESRGEVCLTSCERLR) [Peptide 871-31-S3]"
  RESULT_UNIT: "nM"
  COMPARISON_SIGN: "="
  RECORDED_RESULT: 14.9
- SUBSTANCE: "LB939 (GEVCLTSCSRVR)"
  RESULT_UNIT: "nM"
  COMPARISON_SIGN: ">"
  RECORDED_RESULT: 100
- SUBSTANCE: "2Hd7-1 (CVAMTTCSKLRQCLSA) [Peptide 2Hd7-1]"
  RESULT_UNIT: "nM"
  COMPARISON_SIGN: "="
  RECORDED_RESULT: 4.9
- SUBSTANCE: "2H9-15 (EVCMTSCDRLKQAFLL) [Peptide 2H9-15]"
  RESULT_UNIT: "nM"
  COMPARISON_SIGN: "="
  RECORDED_RESULT: 78.4
- SUBSTANCE: "3H858-2 (IRVGEVCMTTCEKLM) [Peptide 3H858-2]"
  RESULT_UNIT: "nM"
  COMPARISON_SIGN: "="
  RECORDED_RESULT: 66.7
- SUBSTANCE: "3H857-13 (VEAGEVCLTLCEKLM) [Peptide 3H857-13]"
  RESULT_UNIT: "nM"
  COMPARISON_SIGN: "="
  RECORDED_RESULT: 167
- SUBSTANCE: "LB931 (GEVCMTSCSRLR)"
  RESULT_UNIT: "nM"
  COMPARISON_SIGN: ">"
  RECORDED_RESULT: 100
- SUBSTANCE: "2Hd7-20 (CVAMTSCDKLRLCQLL) [Peptide 2Hd7-20]"
  RESULT_UNIT: "nM"
  COMPARISON_SIGN: "="
  RECORDED_RESULT: 29
- SUBSTANCE: "2Hd7-3 (CVAMTTCDKLRECMAI) [Peptide 2Hd7-3]"
  RESULT_UNIT: "nM"
  COMPARISON_SIGN: "="
  RECORDED_RESULT: 49
- SUBSTANCE: "Hd5-10: first generation (G1) peptide lead, SEQ ID NO: 14 (NVDQECMTTCTRLRECQLLL)"
  RESULT_UNIT: "nM"
  COMPARISON_SIGN: "="
  RECORDED_RESULT: 78.4
- SUBSTANCE: "LB940 (GEVCLTSCSRLK)"
  RESULT_UNIT: "nM"
  COMPARISON_SIGN: ">"
  RECORDED_RESULT: 100
- SUBSTANCE: "LB936 (GEVCLTSCERIR)"
  RESULT_UNIT: "nM"
  COMPARISON_SIGN: "="
  RECORDED_RESULT: 9

---

Target: Hu DR5 IgG (SEQ ID NO: 109) (Homo sapiens)
Construct: Human DR5 IgG fusion polypeptide
Sequence (O14763 with tags, fused parts or gaps): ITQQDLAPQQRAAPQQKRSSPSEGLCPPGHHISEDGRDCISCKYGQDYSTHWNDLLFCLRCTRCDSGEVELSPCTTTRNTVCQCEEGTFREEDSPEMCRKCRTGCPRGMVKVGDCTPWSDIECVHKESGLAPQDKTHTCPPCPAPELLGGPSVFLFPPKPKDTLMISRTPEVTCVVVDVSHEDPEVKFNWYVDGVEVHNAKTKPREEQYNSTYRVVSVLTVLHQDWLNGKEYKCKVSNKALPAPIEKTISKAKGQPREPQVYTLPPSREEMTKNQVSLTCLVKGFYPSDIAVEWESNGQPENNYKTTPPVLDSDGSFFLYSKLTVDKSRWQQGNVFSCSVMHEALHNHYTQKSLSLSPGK
Test: Ic50 cross-reactivity ELISA, Hu DR5 IgG
Format: binding
Conditions: Table IV cross-reactivity; phage clones
Method: 1. Coat microtiter plate wells with 80 ul of 1 ug/ml Apo-2L receptor DR5 ECD (SEQ ID NO: 105) (in 50 mM sodium carbonate pH 9.6) at 4° C. overnight. 3. Prepare competing receptor solutions (100 ul/sample). 6. Transfer 80 ul the mixture of competing receptor and phage from the non-sticky plate to DR5 ECD coated plate and incubate 20 minutes at room temperature. […]

- SUBSTANCE: "Hd5-11: phage-derived DR5 binding peptide, class C1, SEQ ID NO: 15, first generation (G1) lead (QEVCMTSCDKLMKCNWMAAM)"
  IC50 / nM: 8
